# Tested on: Mus musculus
# Measurement description: Acute toxicity in mouse assessed as mortality up to 100 mg/kg, ip after 7 days
# Assay type: organism-based
# Experimental setup: in vivo, 168 h
Measured attribute: Activity

• NNC(=O)CCCCCNC(=O)c1ccccc1N = Non-Toxic
• CC(NC(=O)c1ccccc1N)C(=O)NN (centres undefined) = Non-Toxic
• NNC(=O)CNC(=O)c1ccccc1N = Non-Toxic
• O=C(CNC(=O)c1ccccc1/N=C/c1ccc(Cl)cc1)N/N=C\c1ccc(Cl)cc1 = Non-Toxic

====

# System: Leishmania aethiopica
# Measurement description: Antileishmanial activity against promastigote stage of Leishmania aethiopica assessed as parasite growth inhibition after 24 hrs by Alamar blue assay
# Format: functional
Measured attribute: pIC50
One number for each entry, as −log10 of the molar value.

I need pIC50 for every entry listed below, if you could help.
1. O=C(CCCCCN1C(=O)c2ccccc2NC1c1ccco1)N/N=C/c1ccco1 (configuration not stated)
2. COC(=O)C(C)NC(=O)c1ccccc1N (configuration not stated)
3. O=C(CNC(=O)c1ccccc1/N=C/c1ccc(Cl)cc1)N/N=C\c1ccc(Cl)cc1
4. O=C(CCCCCN1C(=O)c2ccccc2NC1c1ccc2c(c1)OCO2)N/N=C/c1ccc2c(c1)OCO2 (configuration not stated)
5. COc1ccc(/C=N/NC(=O)CN2C(=O)c3ccccc3NC2c2ccc(OC)cc2)cc1 (configuration not stated)
6. O=C(N/N=C/c1ccco1)C(Cc1ccccc1)N1C(=O)c2ccccc2NC1c1ccco1 (configuration not stated)
7. CC(NC(=O)c1ccccc1N)C(=O)NN (configuration not stated)

Return:
1: 4.96; 2: 4.64; 3: 7.28; 4: 5.03; 5: 5.04; 6: 5.04; 7: 6.73
